- Test system: IFN-γ
- ASSAY OVERVIEW: Cytokine assay, IFN-γ release from PBMC
- Type: cell-based
- EXPERIMENTAL PARAMETERS: human PBMC, 20 ug/mL PHA, 24 hours, 10 μM
Structures can show the parent of a compound that is named as a salt.
Would you mind telling me the reported inhibition at 10 µM of each entry?

Prompt: Need inhibition at 10 µM, item `C[NH+]1CCN(C(=O)COc2cc(Oc3ccc4c(c3)COB4O)ccc2C#N)CC1`
Response: 60 to 90%

Prompt: Please give the measured inhibition at 10 µM for this compound: `N#Cc1ccc(Oc2ccc3c(c2)COB3O)cc1OCC(=O)O`
Response: 30 to 60%

Prompt: Reported inhibition at 10 µM, compound `N#Cc1cc(CNC=O)ccc1Oc1ccc2c(c1)COB2O` : ____
Response: 60 to 90%

Prompt: Can you look up the measured inhibition at 10 µM of N#Cc1ccc(Oc2ccc3c(c2)COB3O)c(CN)c1 [D138, hydrochloride] for me?
Response: 30 to 60%

Prompt: Query (compound): `CC1CCN(C(=O)COc2cc(Oc3ccc4c(c3)COB4O)ccc2C#N)CC1` ; field requested: inhibition at 10 µM
Response: 90 to 100%

Prompt: Dear colleague, I am looking for the recorded inhibition at 10 µM of the following compound: `COc1ccc(Oc2ccc3c(c2)B(O)OC3)cc1`
Response: 30 to 60%

* * *

- Test system: IL-5
- ASSAY OVERVIEW: Cytokine assay, IL-5 release from PBMC
- Type: cell-based
- EXPERIMENTAL PARAMETERS: human PBMC, 20 ug/mL PHA, supernatant at 48 hours
Counter-ions that a name gives are not always drawn.
So I've got a bunch of compounds here, and I need their IC50 values.

Prompt: What does the data say about its IC50? Entry: `COCCN(C)c1nc(Oc2ccc3c(c2)COB3O)ccc1C#N`
Response: 1 to 4 µM

Prompt: For the compound `O=C(NCc1ccccc1)c1ccc(Oc2ccc3c(c2)COB3O)cc1` , what IC50 is on record?
Response: 4 to 10 µM

Prompt: Which IC50 value is on record for `CCOC(=O)c1ccc(Oc2ccc3c(c2)COB3O)c(F)c1` ?
Response: 4 to 10 µM

Prompt: Query: IC50; subject: `CCNC(=O)c1ccc(Oc2ccc3c(c2)COB3O)nc1`
Response: 1 to 4 µM

Prompt: Quick check: IC50 of `N#Cc1ccc(Oc2ccc3c(c2)COB3O)nc1N` ?
Response: < 1 µM

Prompt: Form field: reported IC50 of `CCOC(=O)COc1cc(Oc2ccc3c(c2)COB3O)ccc1C#N`
Response: < 1 µM

Prompt: Entry under review: N#Cc1ccc(Oc2ccc3c(c2)COB3O)c(CN)c1 [D26, hydrochloride] . Reported IC50?
Response: 4 to 10 µM

Prompt: What does the data say about its IC50? Entry: `CCS(=O)(=O)c1ccc(Oc2ccc3c(c2)COB3O)cc1`
Response: 4 to 10 µM

Prompt: What IC50 value was documented for this compound, `CCOC(=O)c1ccc(Oc2ccc3c(c2)COB3O)c(C(F)(F)F)c1` ?
Response: 1 to 4 µM

Prompt: For the compound shown here, `CC(=O)N1CCN(C(=O)c2ccc(Oc3ccc4c(c3)COB4O)cc2)CC1` , give the reported IC50.
Response: > 10 µM

Prompt: # IC50 lookup, item `O=C1NC(=O)c2cc(Oc3ccc4c(c3)COB4O)ccc21`
Response: < 1 µM

Prompt: Using the record for `CC(C)OC(=O)c1ccc(Oc2ccc3c(c2)COB3O)cc1` , report its IC50.
Response: 1 to 4 µM

Prompt: Dear colleague, I am looking for the recorded IC50 of the following compound: `N#Cc1ccc(Oc2ccc3c(c2)B(O)OC3)cc1`
Response: > 10 µM

Prompt: Which IC50 value belongs to `CCCOc1nc(Oc2ccc3c(c2)COB3O)ccc1C#N` ?
Response: < 1 µM

Prompt: Entry under review: `NCc1ccc(Oc2ccc3c(c2)COB3O)nc1NCCO` . Reported IC50?
Response: 1 to 4 µM

Prompt: Need IC50, item `OCc1ccc(Oc2ccc3c(c2)COB3O)nc1`
Response: > 10 µM

Prompt: Could you share which IC50 value was measured for `CCN(CC)C(=O)c1ccc(Oc2ccc3c(c2)COB3O)nc1` ?
Response: 1 to 4 µM
